These data points were gathered from patent US7105531B2.

propertyLabel: melting point

Use these answered entries as a reference point.
structureAsSmiles	melting point
COc1cc(Nc2c(C#N)cnc3cc4ccccc4cc23)c(C)cc1Cl	195 to 197 °C
COc1cc(Nc2c(C#N)cnc3c2sc2ccccc23)c(Cl)cc1Cl	234 to 236 °C
COc1cc2cc3ncc(C#N)c(Nc4ccc(Cl)cc4Cl)c3cc2cc1OC	271 to 273 °C
N#Cc1cnc2cc3c(cc2c1Nc1ccc(Oc2ccccc2)cc1)ncn3CCN1CCOCC1	> 260 °C
N#Cc1cnc2c(sc3ccccc32)c1Oc1ccc(Cl)cc1F	174 to 175 °C

Go through the list and state melting point for each entry.
1. COc1cc(Nc2c(C#N)cnc3nc4cc(OCCN5CCN(C)CC5)c(OC)cc4cc23)c(Cl)cc1Cl
2. COc1cc(Nc2c(C#N)cnc3cc4cc(OCCCl)c(OC)cc4cc23)c(Cl)cc1F
3. COc1cc2cc3c(Nc4ccc(Sc5nccn5C)c(Cl)c4)c(C#N)cnc3nc2cc1OCCCl

["240 to 243 °C (dec.)", "193 to 204 °C", "> 250 °C (dec.)"]

###

propertyLabel: melting point

Use these answered entries as a reference point.
compound	melting point
COc1cc2cc3c(Nc4ccc(Sc5nccn5C)c(Cl)c4)c(C#N)cnc3cc2cc1OCCN1CCOCC1 [Example 149]	> 300 °C
N#Cc1cnc2cc3cc(O)ccc3cc2c1Nc1ccc(Cl)cc1Cl [Example 106]	267 to 269 °C
COc1cc(Nc2c(C#N)cnc3cc4cc(OC)c(OCCN5CCN(C)CC5)cc4cc23)c(Cl)cc1F [Example 201]	170 to 173 °C

Turning now to a further record.
May I ask what melting point has been recorded for COc1cc(Nc2c(C#N)cnc3cc4cc(OCCCl)c(OC)cc4cc23)c(C)cc1Cl [Example 122] ? 132 to 168 °C (dec.)

###

molecular target: Rat2 fibroblasts transformed with v-Src/Hu c-Src fusion gene (Homo sapiens, UniProt P12931, cells depend on it, form not given); construct: fused on or other part: The v-Src frame of Rous sarcoma virus: everything outside the catalytic domain, namely the N-terminal unique/SH3/SH2 part; Candidates are Prague C (P00526), then Schmidt-Ruppin A (P00524); assay: Anchorage independent Src-transformed fibroblast proliferation test procedure; format: cell-based, rat; conditions: rat2 fibroblasts transformed with v-src/hu c-src fusion gene; read-out: Src TF prolif IC50
Sequence (P12931 whole entry, change not shown, the tested form may be a part): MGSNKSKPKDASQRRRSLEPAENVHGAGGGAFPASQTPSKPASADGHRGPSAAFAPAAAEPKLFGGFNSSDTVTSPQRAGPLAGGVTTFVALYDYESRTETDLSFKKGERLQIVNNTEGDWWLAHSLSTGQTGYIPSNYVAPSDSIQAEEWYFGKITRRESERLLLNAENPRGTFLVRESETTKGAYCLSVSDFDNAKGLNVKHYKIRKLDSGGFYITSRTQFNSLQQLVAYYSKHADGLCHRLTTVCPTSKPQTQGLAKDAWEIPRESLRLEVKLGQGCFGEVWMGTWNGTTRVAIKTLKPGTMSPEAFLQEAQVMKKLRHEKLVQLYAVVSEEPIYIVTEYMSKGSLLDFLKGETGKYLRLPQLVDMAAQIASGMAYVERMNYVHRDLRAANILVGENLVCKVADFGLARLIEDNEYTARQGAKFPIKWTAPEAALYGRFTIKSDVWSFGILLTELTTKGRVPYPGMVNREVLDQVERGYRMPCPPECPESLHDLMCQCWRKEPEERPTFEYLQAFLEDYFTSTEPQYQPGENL
Exercise: state measured log10 GI50 for each of the compounds provided.
The common logarithm of GI50 in nM is what is listed.

Use these answered entries as a reference point.
structureAsSmiles	log10 GI50
CCOc1cc2cc3c(Nc4cc(OC)c(Cl)cc4C)c(C#N)cnc3cc2cc1OCCN1CCOCC1	1.34
COc1cc(Nc2c(C#N)cnc3cc4cc(OCCCN5CCOCC5)c(OC)cc4cc23)c(Cl)cc1Cl	1.58
COc1cc(Nc2c(C#N)cnc3cc4cc(OCCN5CCN(C)CC5)c(OC)cc4cc23)c(Cl)cc1C	1.85
COc1cc(Nc2c(C#N)cnc3nc4cc(OCCN5CCOCC5)c(OC)cc4cc23)c(Cl)cc1Cl	3.57
COc1cc(Nc2c(C#N)cnc3cc4cc(OC)c(OCCN5CCN(C)CC5)cc4cc23)c(Cl)cc1F	2.24

Go through the list and state log10 GI50 for each entry.
1. COc1cc(Nc2c(C#N)cnc3cc4cc(OCCN5CCOCC5)c(OC)cc4cc23)c(Cl)cc1Cl
2. COc1cc(Nc2c(C#N)cnc3cc4cc(OCCn5nccn5)c(OC)cc4cc23)c(Cl)cc1Cl
3. CCOc1cc2cc3ncc(C#N)c(Nc4cc(OC)c(Cl)cc4C)c3cc2cc1OCCN1CCOCC1
4. COc1cc(Nc2c(C#N)cnc3nc4cc(OCCCl)c(OC)cc4cc23)c(Cl)cc1Cl
5. COc1cc(Nc2c(C#N)cnc3cc4cc(OCCn5ccnn5)c(OC)cc4cc23)c(Cl)cc1Cl

1.18
1.83
2.23
3.27
1.86

###

Exercise: state measured melting point for each of the compounds provided.

Use these answered entries as a reference point.
structureAsSmiles	result
N#Cc1cnc2c(oc3ccccc32)c1Nc1cccc(Br)c1	242 to 245 °C
COc1ccc(Cl)c(Nc2c(C#N)cnc3c2C=C2N=CN=C2C3)c1	296 to 298 °C
CCOc1cc2cc3c(Nc4cc(OC)c(Cl)cc4C)c(C#N)cnc3cc2cc1OCCN1CCOCC1	201 to 203 °C
CCOc1cc2cc3c(Nc4cc(OC)c(Cl)cc4C)c(C#N)cnc3cc2cc1OCCCl	129 to 130 °C

May I ask what melting point has been recorded for `N#Cc1cnc2cc3cc(O)c(O)cc3cc2c1Nc1ccc(Cl)cc1Cl` ? > 260 °C

###

target: Rat2 fibroblasts transformed with v-Src/Hu c-Src fusion gene (Homo sapiens, UniProt P12931, cells depend on it, form not given); construct: fused on or other part: The v-Src frame of Rous sarcoma virus: everything outside the catalytic domain, namely the N-terminal unique/SH3/SH2 part; Candidates are Prague C (P00526), then Schmidt-Ruppin A (P00524); experiment: Anchorage independent Src-transformed fibroblast proliferation test procedure; assay type: cell-based, rat; conditions: rat2 fibroblasts transformed with v-src/hu c-src fusion gene; read-out: Src TF prolif IC50
Exercise: state measured GI50 for each of the compounds provided.

structureAsSmiles	result
COc1cc(Nc2c(C#N)cnc3nc4cc(OC)c(OC)cc4cc23)c(Cl)cc1Cl	> 10 µM
COc1cc2cc3ncc(C#N)c(Nc4ccc(F)c(Cl)c4)c3cc2cc1OCCN1CCOCC1	> 10 µM

May I ask what GI50 has been recorded for `CCOc1cc2cc3c(Nc4cc(OC)c(Cl)cc4C)c(C#N)cnc3cc2cc1OCCN(CC(N)=O)CC(N)=O` ? > 10 µM
